TARGET_UNDER_TEST: T1, NatA complex (Naa15-Naa10) (human, UniProt P41227 1-235; Q9BXJ9 1-866)
T1 sequence (looked up) 1: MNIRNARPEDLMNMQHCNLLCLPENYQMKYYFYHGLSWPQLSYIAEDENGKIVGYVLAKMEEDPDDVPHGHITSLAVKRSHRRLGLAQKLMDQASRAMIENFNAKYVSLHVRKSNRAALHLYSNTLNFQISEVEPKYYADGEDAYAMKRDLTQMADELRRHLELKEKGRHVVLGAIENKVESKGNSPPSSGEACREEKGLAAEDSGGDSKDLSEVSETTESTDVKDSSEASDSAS
T1 sequence (looked up) 2: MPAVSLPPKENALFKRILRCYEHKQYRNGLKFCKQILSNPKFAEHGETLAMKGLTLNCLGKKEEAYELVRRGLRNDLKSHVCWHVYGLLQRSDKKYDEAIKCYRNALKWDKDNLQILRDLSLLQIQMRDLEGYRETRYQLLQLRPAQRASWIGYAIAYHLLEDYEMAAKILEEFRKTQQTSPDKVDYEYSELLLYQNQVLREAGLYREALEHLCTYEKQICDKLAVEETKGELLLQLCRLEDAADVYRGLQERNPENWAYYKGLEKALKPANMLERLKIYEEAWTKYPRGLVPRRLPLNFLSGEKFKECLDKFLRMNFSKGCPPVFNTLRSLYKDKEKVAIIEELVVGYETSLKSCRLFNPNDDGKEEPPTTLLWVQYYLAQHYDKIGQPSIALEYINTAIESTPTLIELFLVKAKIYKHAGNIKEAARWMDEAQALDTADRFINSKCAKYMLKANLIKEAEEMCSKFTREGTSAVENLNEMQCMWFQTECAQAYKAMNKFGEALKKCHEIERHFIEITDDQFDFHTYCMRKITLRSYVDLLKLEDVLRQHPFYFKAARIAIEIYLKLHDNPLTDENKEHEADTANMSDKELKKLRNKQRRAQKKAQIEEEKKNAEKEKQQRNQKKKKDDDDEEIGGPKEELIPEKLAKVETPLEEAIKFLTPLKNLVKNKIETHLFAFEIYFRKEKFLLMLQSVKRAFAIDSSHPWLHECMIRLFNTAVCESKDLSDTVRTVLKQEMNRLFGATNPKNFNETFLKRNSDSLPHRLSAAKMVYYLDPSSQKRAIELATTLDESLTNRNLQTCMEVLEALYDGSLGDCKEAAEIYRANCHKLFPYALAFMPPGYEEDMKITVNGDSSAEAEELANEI
TEST: cell-based or functional assay
Square brackets hold non-standard residues; d marks the D form. Ends that are not written are not given here. Nle = CCCC[C@H](N)C(=O)O; CoA = coenzyme A
Cut-off 10 µM on IC50 (µM), Nt-acetylation inhibition: below means 1.0, at or above means 0.0.

// known answers, use as guide
{CoA-Ac}-SSMP-NH2 [CoA-Ac-SSMP] ... 1.0
{CoA-Ac}-SSAE-NH2 [CoA-Ac-SSAE] ... 1.0
{CoA-Ac}-SESS-NH2 [CoA-Ac-SESS] ... 0.0
{CoA-Ac}-SSME-NH2 [CoA-Ac-SSME] ... 1.0
{CoA-Ac}-SAAE-NH2 [CoA-Ac-SAAE] ... 0.0
{CoA-Ac}-PS[Nle]P (not fully specified (C-terminus); printed as CoA-Ac-PS(Nle)P) [CoA-Ac-PS(Nle)P] ... 0.0

Request: Consider the binder {CoA-Ac}-SASE-NH2 [CoA-Ac-SASE] . Is its IC50 (µM), Nt-acetylation inhibition strictly less than 10 µM?
Result: 0.0

// data source = patent US20200323888A1
